# Target Under Test: large cytoplasmic loop of the GlyR β subunit (AA 378-425)
# Sequence (P48167 400-447 limits assumed): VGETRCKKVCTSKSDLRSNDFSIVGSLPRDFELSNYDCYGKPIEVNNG
# Assay Remarks: ITC; CB-SH3 titrated against the receptor loops and truncated constructs
Reported Endpoint: Kd

## Task Given the binder SH3 domain of collybistin (CB-SH3) (domain or fragment, murine, UniProt Q3UTH8 4-72, looked up, collybistin CB1, murine, residues 4-72, encompassing the complete SH3 domain (residues 8-67); pGEX construct provided by T. Soykan (Brose lab); source: E. coli, purified (GST tag, in-situ thrombin cleavage, Superdex 200 SEC); not shown: GST, N-terminal, cleaved) LITGDSIVSAEAVWDHVTMANRELAFKAGDVIKVLDASNKDWWWGQIDDEEGWFPASFVRLWVNQEDGV , what is its reported Kd?
## Result > 500 µM

Reference for the values: paper PMC6081406
